- TARGET OR TEST SYSTEM: Cif (Pseudomonas aeruginosa (strain UCBPP-PA14), UniProt A0A0H2ZD27)
- Sequence (A0A0H2ZD27 25-319 limits assumed): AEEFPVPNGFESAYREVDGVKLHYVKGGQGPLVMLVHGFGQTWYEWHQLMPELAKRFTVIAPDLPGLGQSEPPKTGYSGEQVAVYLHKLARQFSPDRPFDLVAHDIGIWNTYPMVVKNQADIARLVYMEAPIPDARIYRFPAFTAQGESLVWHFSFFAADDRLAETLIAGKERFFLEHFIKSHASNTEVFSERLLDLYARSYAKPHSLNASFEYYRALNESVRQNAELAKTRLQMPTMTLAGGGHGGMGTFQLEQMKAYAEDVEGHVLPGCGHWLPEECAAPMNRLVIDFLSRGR
- PROTOCOL SUMMARY: Secondary screen (sextuplicate) with fluorogenic substrate CMNGC
- Assay type: biochemical
- PARTICULARS: read-out: % Inhibition, plate 3
Structures can show the parent of a compound that is named as a salt.
Use 10% as the dividing line for inhibition at 10 µM, with the line itself on the Satisfied side and lower values as Not satisfied.

Reference set (5 entries):
{"columns": ["COMPOUND", "CLASSIFICATION"],
 "data": [
  ["Cc1nccnc1N1CCCCC1 [Modaline sulfate]", "Satisfied"],
  ["CC(=O)CC(c1ccccc1)c1c(O)c2ccccc2oc1=O (stereo not drawn)", "Satisfied"],
  ["Nc1nc(Cl)nc2c1ncn2[C@@H]1O[C@H](CO)[C@@H](O)[C@@H]1F", "Not satisfied"],
  ["CCN(CC)CCOc1ccc2c(c1)C(=O)c1cc(OCCN(CC)CC)ccc1-2", "Not satisfied"],
  ["CN1CCCC(n2nc(Cc3ccc(Cl)cc3)c3ccccc3c2=O)CC1 (stereo not drawn) [Azelastine hydrochloride]", "Satisfied"]
]}

QUERY: Record `NC[C@H]1O[C@H](O[C@H]2[C@H](O)[C@@H](O[C@H]3O[C@H](CO)[C@@H](O)[C@H](N)[C@H]3O)[C@H](N)C[C@@H]2N)[C@H](N)C[C@@H]1O` ; criterion: inhibition at 10 µM no lower than 10%. Met?
RESULT: Not satisfied

----------
- TARGET OR TEST SYSTEM: Cif (Pseudomonas aeruginosa (strain UCBPP-PA14))
- PROTOCOL SUMMARY: Secondary screen (sextuplicate) with fluorogenic substrate CMNGC;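 also: purified enzyme assay in 96-well plates, 200 µL volume, fluorescence recorded each minute across a 60 min reaction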
- Format: biochemical
- PARTICULARS: read-out: % Inhibition, plate 3
Structures can show the parent of a compound that is named as a salt.
Catalogue of compounds with associated inhibition at 10 µM

{"columns": ["COMPOUND", "RESULT VALUE"],
 "data": [
  ["Cc1c(Nc2ncccc2C(=O)O)cccc1C(F)(F)F", "14%"],
  ["C[C@]12CCC(=O)C=C1C=C[C@@H]1[C@@H]2CC[C@@]2(C)[C@H]1CC[C@@]21CCC(=O)O1", "20%"]
]}

Now look at this entry.
QUERY: What measured inhibition at 10 µM goes with NCC(O)c1ccc(O)cc1 (stereo not drawn) [Octopamine hydrochloride] ?
RESULT: 12%
